tested on: NCI/ADR-RES; experiment: NCI tumour cell line growth inhibition, 48 h
Active and inactive are the calls of the source. Cut-off read from the data, not from the text of the source: active = GI50 up to about 1.1 µM and inactive = higher.
Parameter: GI50. Scope: all listed entries.
parameter: GI50

compound	valueObserved
COc1cc2c(cc1OCCCNC(=O)c1cc3ccccc3[nH]1)N=C[C@@H]1CCCN1C2=O	2.04 µM (inactive)
CC1(C)OCC2OC3(c4nc(C#N)c(N)o4)OC(C)(C)OC3C2O1 (stereo not drawn)	> 100 µM (inactive)
COC(=O)c1c(O)ccc2c1c1c(n2Cc2ccc(Cl)cc2Cl)C(=O)c2ccccc2C1	34 µM (inactive)
COC1OC(=O)C(OC)C(OC)C1OC (stereo not drawn)	> 100 µM (inactive)
C=CCCCC1(C)CCCCNC1=O (stereo not drawn)	> 10 µM (inactive)
COc1ccccc1N1CCN(Cn2c(=O)oc3cccnc32)CC1	> 100 µM (inactive)
CCN(CC)C(=S)SNCc1ccc(S(N)(=O)=O)cc1	18.9 µM (inactive)
CC1(CCCCO)C=CC(S(=O)(=O)c2ccccc2)CC1 (stereo not drawn)	2.59 µM (inactive)
Clc1cc(Cl)cc(C2ON=C(c3ccccc3)N2C23CC4CC(CC(C4)C2)C3)c1 (stereo not drawn)	> 10 µM (inactive)
CC(=O)OC(=C(C#N)C#N)c1nccnc1C(C)=O	> 20 µM (inactive)
COCCOCCOCCC(=O)NC1CC2CCC1(C)C2(C)C (stereo not drawn)	> 100 µM (inactive)
CC1=CCC[C@H]2[C@](C)(CC3=CC(=O)C(SCC(C)C)=CC3=O)[C@@H](C)CC[C@]12C	16 µM (inactive)
O=[N+]([O-])/C=C/c1cc2ccccc2[nH]1	32.1 µM (inactive)
N#C/C(=C\c1ccc(Cl)cc1)c1nc(-c2cc3ccccc3oc2=O)cs1	39.6 µM (inactive)
Cn1ccnc1Sc1ccc(/C=N/NC(=O)c2ccccc2O)cc1[N+](=O)[O-]	> 100 µM (inactive)
O=C(Cn1cc(-c2ccccc2)nn1)NC1CCCC1	> 100 µM (inactive)
c1ccc(-c2nc3ccccc3n3nnnc23)cc1	> 100 µM (inactive)
CC(=O)NNc1nc(C)c(C(/C=C/c2ccccc2O)=N/NC(=O)c2ccncc2)s1	> 100 µM (inactive)
[N-]=[N+]=NC1=C(c2ccccc2)C(=O)c2cccc3cccc1c23	45.5 µM (inactive)
Cn1/c(=N\S(=O)(=O)c2ccccc2)n(S(=O)(=O)c2ccccc2)c2ccccc21	38.6 µM (inactive)
Oc1ccc(-c2nc(-c3cccnc3)c(-c3ccc(Cl)cc3)[nH]2)cc1O	14.1 µM (inactive)
CC(C)C1OC(N)=C(C#N)C1(C#N)C#N (stereo not drawn)	58.1 µM (inactive)
OCN(CO)c1ccc2c(c1)Cc1cc(F)ccc1-2	20.2 µM (inactive)

====

tested on: A549; experiment: NCI tumour cell line growth inhibition, 48 h
Active and inactive are the calls of the source. Rule as the data show it: active = GI50 up to about 1.1 µM and inactive = higher. Where a SMILES comes first, the peptide text is derived from it. Square brackets hold non-standard residues; d marks the D form. Peptide text beside a SMILES is read from it. The star is where a group is joined. * marks the point of attachment. Tyr(3-Br) = N[C@@H](Cc1ccc(O)c(Br)c1)C(=O)O; Boc = CC(C)(C)OC(=O)*
Parameter: GI50. Scope: all listed entries.
parameter: GI50

compound	valueObserved
CCOC(=O)/C(=C\NCc1ccc2c(c1)OCO2)c1nc2ccccc2[nH]1	35.4 µM (inactive)
O=C(O)CN(CC(=O)O)C1CCCCC1N(CC(=O)O)CC(=O)NCCN=C=S (centres undefined)	> 100 µM (inactive)
Cn1c(=O)c2c(ncn2CCNC(CO)C(O)c2ccc([N+](=O)[O-])cc2)n(C)c1=O (centres undefined)	> 100 µM (inactive)
CCC1(O)C(=O)OCc2c1cc1n(c2=O)Cc2cc3cc(OC)c(OC)cc3nc2-1 (centres undefined)	33.1 µM (inactive)
CCOC(=O)N1C/C(=C\c2ccc(N(C)C)cc2)C(=O)/C(=C/c2ccc(N(C)C)cc2)C1	> 100 µM (inactive)
Nc1nc(Cl)c(N)c(NCC2(CO)CC(CCCc3ccccc3)C2)n1 (centres undefined)	15.5 µM (inactive)
CN(C)CC(C)(C)C(=O)/C=C/c1ccccc1	28.8 µM (inactive)
COC(=O)NC(=O)NC(Cc1ccccc1)NC(=O)OCc1ccccc1 (centres undefined)	97.7 µM (inactive)
O=c1c(Cc2ccc(Cc3c(O)oc4ccccc4c3=O)cc2)c(O)oc2ccccc12	> 100 µM (inactive)
CC(=O)NC(CCCN(Cc1ccccc1)C(=O)N(CCCl)N=O)C(=O)NCc1ccccc1 (centres undefined)	16.1 µM (inactive)
CCOC(=O)C(NNS(=O)(=O)c1ccc(C)cc1)S(=O)(=O)C(F)(F)C(F)(F)C(F)(F)C(F)(F)F (centres undefined)	> 100 µM (inactive)
N#CN1CCC=C(c2cc3ccccc3[nH]2)C1	394 µM (inactive)
CC1=C(C)SC(=C2Sc3c(n(C)c(=O)n(C)c3=O)S2)S1	42.5 µM (inactive)
C[n+]1cn(C2=C([N-]S(=O)(=O)c3ccccc3)C(=O)c3ccccc3C2=O)c2ccccc21	85.9 µM (inactive)
NC(=S)NS(=O)(=O)c1ccc(F)cc1	> 100 µM (inactive)
N#C/C(=C\c1ccc(Cl)cc1)c1nc(-c2cc3ccccc3oc2=O)cs1	86.5 µM (inactive)
Nc1nc(Cl)c(CO)c(NCC2(CO)CCC2)n1	> 100 µM (inactive)
Cc1[nH]c(=O)[nH]c(=O)c1/C=C/C(=O)NC(CO)C[S+]([O-])Cc1ccccc1 (centres undefined)	> 300 µM (inactive)
CC1(C)CC(=O)C(=CNC(N)=S)C(=O)C1	> 100 µM (inactive)
Oc1ccccc1CNCc1nc2ccccc2[nH]1	> 100 µM (inactive)
CC1(CCCCO)C=CC(S(=O)(=O)c2ccccc2)CC1 (centres undefined)	3.64 µM (inactive)
O=C(/N=C(/Nc1ccccc1)SCS/C(=N\C(=O)c1ccco1)Nc1ccccc1)c1ccco1	41.5 µM (inactive)
CN1N=C(c2ccncc2)OC1c1ccccc1F (centres undefined)	> 100 µM (inactive)
CCCCCCCOc1ccc(/C=C\c2cc[n+](CCCCCCCC[n+]3ccc(/C=C\c4ccc(OCCCCCCC)cc4)cc3)cc2)cc1	8.55 µM (inactive)
Cc1cc(C2CCCCC2)n(O)c(=O)c1	3.91 µM (inactive)
CC1(C23CC4CC(CC(C4)C2)C3)n2c(=O)n(-c3ccccc3)c(=O)n2C1(C)C12CC3CC(CC(C3)C1)C2 (centres undefined)	> 100 µM (inactive)
Cc1cccc(Cl)c1NC(N)=S	82.8 µM (inactive)
COC(=O)c1sc(C(=O)OC)c2c1C[S+]([O-])C2	> 100 µM (inactive)
CC(C)(O)/C=C\P(C)(=O)c1ccccc1 (centres undefined)	> 100 µM (inactive)
C#CCC[C@@H]1O[C@@]1(C)CC/C=C(\C)CC/C=C/C=O	43.6 µM (inactive)
COC(=O)[C@H](Cc1ccc(O)c(Br)c1)NC(=O)[C@H](Cc1ccc(O)cc1)NC(=O)OC(C)(C)C (Boc-Tyr-[Tyr(3-Br)]-OMe)	> 100 µM (inactive)
N=C(NCc1ccccc1)N/N=C\c1ccnc2ccccc12	15 µM (inactive)
CCOC(=O)C(NCc1ccccc1)(NC(=O)c1ccccc1)C(F)(F)F (centres undefined)	> 100 µM (inactive)
COc1cccc([C@@H]2C/C(=N\NC(=O)C(=O)N[C@@H](C)c3ccccc3)c3cc4c(cc3N2)OCO4)c1	43.9 µM (inactive)
COC(=O)C(Cc1c[nH]c2ccccc12)NC(=O)C(Cc1c[nH]c2ccccc12)NC(=O)C(Cc1c[nH]c2ccccc12)NC(=O)OC(C)(C)C (stereo not drawn) (Boc-Trp-Trp-Trp-OMe; configuration not given here)	39.2 µM (inactive)
CC(C)(C)c1cc(C2=NN(c3ccccc3)C(c3ccccc3)C2)cc(C(C)(C)C)c1O (centres undefined)	> 100 µM (inactive)
O=Cc1ccc(-c2cc(C=O)c(-c3cccs3)[nH]2)s1	24.8 µM (inactive)
O=[N+]([O-])c1ccc(Cl)c2c([N+](=O)[O-])cccc12	> 10 µM (inactive)
CO[C@]12CC(=O)C3(C(C[C@H]4CC5CCC6=CC(=O)CC[C@]6(OC(C)=O)C5C[C@@]43C)C1)C1C[C@H]3[C@@H]4CCC5=CC(=O)CC[C@]5(OC(C)=O)[C@H]4CC[C@]3(C)C12 (some centres undefined)	> 100 µM (inactive)

Entry source: ChEMBL document CHEMBL1201862
